Cited source: ChEMBL document CHEMBL5579809

target.entity: Protein cereblon/CREB-binding protein (Homo sapiens) (UniProt Q92793+Q96SW2)
Sequence (Q92793 2-2442 limits assumed): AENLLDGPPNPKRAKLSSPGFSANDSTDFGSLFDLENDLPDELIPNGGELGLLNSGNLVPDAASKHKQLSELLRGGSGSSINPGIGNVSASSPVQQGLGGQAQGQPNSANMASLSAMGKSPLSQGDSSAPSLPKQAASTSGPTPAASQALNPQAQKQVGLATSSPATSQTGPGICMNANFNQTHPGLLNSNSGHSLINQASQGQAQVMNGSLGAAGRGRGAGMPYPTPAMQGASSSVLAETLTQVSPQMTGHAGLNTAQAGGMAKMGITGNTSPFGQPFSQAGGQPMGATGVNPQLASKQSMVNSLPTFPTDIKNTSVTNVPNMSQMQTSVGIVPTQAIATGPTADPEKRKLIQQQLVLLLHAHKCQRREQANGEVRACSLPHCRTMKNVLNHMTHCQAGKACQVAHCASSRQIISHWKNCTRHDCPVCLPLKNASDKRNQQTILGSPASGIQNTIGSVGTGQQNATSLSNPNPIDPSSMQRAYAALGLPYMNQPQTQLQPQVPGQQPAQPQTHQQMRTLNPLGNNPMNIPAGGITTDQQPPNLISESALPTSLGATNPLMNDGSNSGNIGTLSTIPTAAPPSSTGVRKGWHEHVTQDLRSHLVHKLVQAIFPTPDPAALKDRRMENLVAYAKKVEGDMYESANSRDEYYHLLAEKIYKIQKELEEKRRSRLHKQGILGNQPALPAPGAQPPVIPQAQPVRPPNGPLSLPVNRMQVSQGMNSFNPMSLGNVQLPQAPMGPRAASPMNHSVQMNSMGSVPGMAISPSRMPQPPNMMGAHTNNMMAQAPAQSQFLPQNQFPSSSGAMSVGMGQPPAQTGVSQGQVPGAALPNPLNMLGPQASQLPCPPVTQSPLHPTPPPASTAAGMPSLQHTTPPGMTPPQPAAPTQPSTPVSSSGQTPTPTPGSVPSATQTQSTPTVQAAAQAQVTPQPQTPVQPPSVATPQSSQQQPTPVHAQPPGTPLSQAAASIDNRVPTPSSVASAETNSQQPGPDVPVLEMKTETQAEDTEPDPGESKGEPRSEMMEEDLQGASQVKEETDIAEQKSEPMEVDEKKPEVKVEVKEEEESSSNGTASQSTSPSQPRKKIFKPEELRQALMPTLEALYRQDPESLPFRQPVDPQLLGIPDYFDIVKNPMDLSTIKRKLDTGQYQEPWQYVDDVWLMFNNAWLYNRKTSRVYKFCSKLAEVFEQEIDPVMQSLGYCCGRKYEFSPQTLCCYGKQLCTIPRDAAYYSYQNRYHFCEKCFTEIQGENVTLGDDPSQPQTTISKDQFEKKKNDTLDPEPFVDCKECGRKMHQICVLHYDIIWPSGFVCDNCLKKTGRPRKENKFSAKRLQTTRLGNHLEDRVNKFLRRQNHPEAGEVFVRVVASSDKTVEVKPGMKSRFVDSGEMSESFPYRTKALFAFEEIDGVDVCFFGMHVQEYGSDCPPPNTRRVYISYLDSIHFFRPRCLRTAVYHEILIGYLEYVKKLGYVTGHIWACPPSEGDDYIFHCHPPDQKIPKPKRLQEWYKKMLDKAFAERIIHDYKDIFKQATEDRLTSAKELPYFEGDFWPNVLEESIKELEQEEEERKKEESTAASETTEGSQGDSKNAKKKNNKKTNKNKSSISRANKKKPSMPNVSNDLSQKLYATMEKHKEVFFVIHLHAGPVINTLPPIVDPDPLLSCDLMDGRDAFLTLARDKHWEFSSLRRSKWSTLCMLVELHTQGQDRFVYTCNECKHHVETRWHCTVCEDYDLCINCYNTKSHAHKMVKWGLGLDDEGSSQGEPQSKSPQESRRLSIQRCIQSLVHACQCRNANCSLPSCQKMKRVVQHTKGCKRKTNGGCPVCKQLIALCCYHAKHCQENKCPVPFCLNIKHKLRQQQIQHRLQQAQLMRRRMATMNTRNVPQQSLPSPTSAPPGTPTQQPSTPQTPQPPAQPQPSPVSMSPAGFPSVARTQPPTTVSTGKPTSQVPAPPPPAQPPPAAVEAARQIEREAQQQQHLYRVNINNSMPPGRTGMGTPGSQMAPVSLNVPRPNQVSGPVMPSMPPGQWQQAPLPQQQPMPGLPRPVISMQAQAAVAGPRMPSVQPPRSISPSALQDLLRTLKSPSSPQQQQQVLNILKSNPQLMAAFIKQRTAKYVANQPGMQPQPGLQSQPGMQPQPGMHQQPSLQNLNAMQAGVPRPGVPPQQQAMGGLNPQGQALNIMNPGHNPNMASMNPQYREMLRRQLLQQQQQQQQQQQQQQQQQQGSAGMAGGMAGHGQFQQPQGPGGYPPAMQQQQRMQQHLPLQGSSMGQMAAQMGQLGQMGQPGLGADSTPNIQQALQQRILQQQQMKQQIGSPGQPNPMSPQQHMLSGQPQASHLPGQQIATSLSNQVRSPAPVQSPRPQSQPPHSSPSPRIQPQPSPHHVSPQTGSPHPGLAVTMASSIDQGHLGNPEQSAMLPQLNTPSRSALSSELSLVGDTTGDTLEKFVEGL
Sequence (Q96SW2 whole entry partner): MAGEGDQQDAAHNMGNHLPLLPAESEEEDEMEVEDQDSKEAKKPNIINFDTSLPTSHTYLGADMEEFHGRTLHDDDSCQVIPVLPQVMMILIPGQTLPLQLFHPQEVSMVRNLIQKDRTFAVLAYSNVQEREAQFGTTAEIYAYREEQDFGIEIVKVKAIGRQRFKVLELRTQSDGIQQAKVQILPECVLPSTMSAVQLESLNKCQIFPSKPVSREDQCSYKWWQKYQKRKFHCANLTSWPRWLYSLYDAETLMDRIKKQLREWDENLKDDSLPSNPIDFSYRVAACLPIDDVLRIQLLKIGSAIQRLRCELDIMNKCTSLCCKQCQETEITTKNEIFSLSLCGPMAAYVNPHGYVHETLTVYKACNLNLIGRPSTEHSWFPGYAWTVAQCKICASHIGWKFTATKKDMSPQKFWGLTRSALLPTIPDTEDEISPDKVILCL
assay.details: PROTAC activity at CRBN/HiBiT-tagged CBP in human HAP1 cells assessed as induction of CBP degradation by measuring degradation rate at 1000 nM measured over 24 hrs by luminescence based analysis
Assay type: cell-based
quantity.kind: Activity (h⁻¹)

molecule | quantity.kind | units.label | numeric.value
CNC(=O)N1CCc2c(c(N3CCCc4cc(-c5cnn(C)c5)c(C(F)F)cc43)nn2C2CCN(C(=O)CCOCCNc3ccc4c(c3)C(=O)N(C3CCC(=O)NC3=O)C4=O)CC2)C1 (stereo not drawn) | Activity | h⁻¹ | 0.36
CNC(=O)N1CCc2c(c(N3CCCc4cc(-c5cnn(C)c5)c(C(F)F)cc43)nn2C2CCN(C(=O)CCOCCOCCOCCOCCNc3ccc4c(c3)C(=O)N(C3CCC(=O)NC3=O)C4=O)CC2)C1 (stereo not drawn) | Activity | h⁻¹ | 0.4
CNC(=O)N1CCc2c(c(N3CCCc4cc(-c5cnn(C)c5)c(C(F)(F)F)cc43)nn2C2CCN(C(=O)CCOCCOCCOCCOCCNc3ccc4c(c3)C(=O)N(C3CCC(=O)NC3=O)C4=O)CC2)C1 (stereo not drawn) | Activity | h⁻¹ | 0.32
